- Test system: Staphylococcus aureus ATCC BAA-1556
readout-name: MIC (µM)

[
  {
    "compound-structure-string": "CC(C)C[C@H](NC(=O)[C@H](CC(C)C)NC(=O)[C@H](CCCCN)NC(=O)[C@H](CC(C)C)NC(=O)[C@H](CC(C)C)NC(=O)[C@H](Cc1c[nH]c2ccccc12)NC(=O)[C@H](CCCCN)NC(=O)[C@H](CC(C)C)NC(=O)[C@@H](N)CC(C)C)C(N)=O",
    "reading-qualifier": "=",
    "measured-result": 3.13
  },
  {
    "compound-structure-string": "CC(C)C[C@H](NC(=O)[C@H](CC(C)C)NC(=O)[C@H](CCCCN)NC(=O)[C@@H](N)CCCCN)C(=O)N[C@@H](CCCCN)C(=O)N[C@@H](Cc1c[nH]c2ccccc12)C(N)=O",
    "reading-qualifier": "≥",
    "measured-result": 100
  },
  {
    "compound-structure-string": "CC(C)C[C@H](NC(=O)[C@H](CC(C)C)NC(=O)[C@H](CCCCN)NC(=O)[C@H](CC(C)C)NC(=O)[C@H](CC(C)C)NC(=O)[C@H](CCCCN)NC(=O)[C@H](CC(C)C)NC(=O)[C@H](CC(C)C)NC(=O)[C@@H](N)CC(C)C)C(N)=O",
    "reading-qualifier": "=",
    "measured-result": 3.13
  },
  {
    "compound-structure-string": "NCCCC[C@H](N)C(=O)N[C@@H](Cc1c[nH]c2ccccc12)C(=O)N[C@@H](CCCN=C(N)N)C(=O)N[C@@H](CCCN=C(N)N)C(=O)N[C@@H](Cc1c[nH]c2ccccc12)C(N)=O",
    "reading-qualifier": "≥",
    "measured-result": 100
  }
]
